target-desc: UniProtKB P47871
procedure-summary: Binding affinity of second enantiomer (E2) against human glucagon receptor was determined
pIC50: −log10 of the molar value.
measure-name: pIC50

pIC50 reading for CCCCCc1c(C(C)C)nc(C(C)C)c(C(C)O)c1-c1ccc(F)cc1O (centres undefined) : 7.92

(I) CCCc1c(C(C)C)nc(C(C)C)c(C(C)O)c1-c1ccc(F)cc1O (centres undefined)
(II) CCCc1c(C(C)C)nc(C(C)C)c(C(C)O)c1-c1ccccc1O (centres undefined)
(III) CCc1c(C(C)C)nc(C(C)C)c(C(C)O)c1-c1ccc(F)cc1O (centres undefined)
Ranking field: pIC50; order: falling. Answer format: the labels, ordered as requested. I, III, II

* * *

target-desc: Glucagon receptor (Homo sapiens, UniProt P47871)
Sequence (P47871 whole entry): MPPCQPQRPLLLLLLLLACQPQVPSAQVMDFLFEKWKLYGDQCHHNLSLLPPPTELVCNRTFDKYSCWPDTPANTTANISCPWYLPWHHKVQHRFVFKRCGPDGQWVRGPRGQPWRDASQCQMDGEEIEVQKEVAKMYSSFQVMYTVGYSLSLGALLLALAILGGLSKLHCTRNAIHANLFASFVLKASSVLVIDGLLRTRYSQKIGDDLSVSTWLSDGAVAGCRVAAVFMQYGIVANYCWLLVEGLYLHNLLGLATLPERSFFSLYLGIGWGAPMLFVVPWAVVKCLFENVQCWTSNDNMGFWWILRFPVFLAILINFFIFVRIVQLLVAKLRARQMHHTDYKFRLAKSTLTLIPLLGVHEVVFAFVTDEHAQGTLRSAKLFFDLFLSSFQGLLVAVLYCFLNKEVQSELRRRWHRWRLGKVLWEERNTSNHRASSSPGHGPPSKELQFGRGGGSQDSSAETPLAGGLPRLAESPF
procedure-summary: Binding affinity of first diastereomer (D1) against human glucagon receptor was determined
pIC50: −log10 of the molar value.
measure-name: pIC50

pIC50 reading for CCCc1c(C(C)C)nc(C(C)C)c(C(C)O)c1-c1ccccc1O (stereo not given) : 7.40

pIC50 reading for CCCCCc1c(C(C)C)nc(C(C)C)c(C(C)O)c1-c1ccc(F)cc1O (stereo not given) : 7.52

pIC50 reading for CCc1c(C(C)C)nc(C(C)C)c(C(C)O)c1-c1ccc(F)cc1O (stereo not given) : 7.70

pIC50 reading for CCCc1c(C(C)C)nc(C(C)C)c(C(C)O)c1-c1ccc(F)cc1O (stereo not given) : 7.74

pIC50 reading for CCCCc1c(C(C)C)nc(C(C)C)c(C(C)O)c1-c1ccc(F)cc1O (stereo not given) : 7.55

* * *

target-desc: Glucagon receptor (Homo sapiens)
procedure-summary: Binding affinity of second diastereomer (D2) against human glucagon receptor was determined
pIC50: −log10 of the molar value.
measure-name: pIC50

pIC50 reading for CCCCc1c(C(C)C)nc(C(C)C)c(C(C)O)c1-c1ccc(F)cc1O (stereo not given) : 6.00

(I) CCc1c(C(C)C)nc(C(C)C)c(C(C)O)c1-c1ccc(F)cc1O (stereo not given)
(II) CCCc1c(C(C)C)nc(C(C)C)c(C(C)O)c1-c1ccc(F)cc1O (stereo not given)
Parameter check: reported pIC50 is higher for which label, I or II ? Give the label under which the chosen entry appears. II

(a) CCCCCc1c(C(C)C)nc(C(C)C)c(C(C)O)c1-c1ccc(F)cc1O (stereo not given)
(b) CCCc1c(C(C)C)nc(C(C)C)c(C(C)O)c1-c1ccccc1O (stereo not given)
Between a and b , which one has the lower reported pIC50 value? Give the label under which the chosen entry appears. a
(a: 5.66, b: 5.96)

* * *

procedure-summary: Compound was evaluated for the functional activity by the inhibition of cAMP production
measure-name: pIC50
When answering, recall that pIC50 equals minus log10 of the concentration in mol/L, and write that number alone.

pIC50 reading for CCCc1c(C(C)C)nc(C(C)C)c(C(C)O)c1-c1ccc(F)cc1O (stereo unspecified) : 8.19

* * *

target-desc: Glucagon receptor (Homo sapiens)
procedure-summary: Binding affinity of first enantiomer (E1) against human glucagon receptor was determined
measure-name: IC50 (µM)

(1) CCc1c(C(C)C)nc(C(C)C)c(C(C)O)c1-c1ccc(F)cc1O (centres undefined)
(2) CCCc1c(C(C)C)nc(C(C)C)c(C(C)O)c1-c1ccc(F)cc1O (centres undefined)
Between 1 and 2 , which one has the lower reported IC50 value? Give the label under which the chosen entry appears. 1

(a) CCCc1c(C(C)C)nc(C(C)C)c(C(C)O)c1-c1ccccc1O (centres undefined)
(b) CCCCCc1c(C(C)C)nc(C(C)C)c(C(C)O)c1-c1ccc(F)cc1O (centres undefined)
Between a and b , which one has the lower reported IC50 value? Give the label under which the chosen entry appears. a
